test.target: full length recombinant Pim-1 protein (Homo sapiens)
Construct: by full length recombinant Pim-1, Pim-2, or Pim-3 protein; hexahistidine tag followed by a thrombin cleavage site (N); made in house; host or cells: Sf9 (baculovirus) or E. coli (pET28)
Sequence (P11309 whole entry): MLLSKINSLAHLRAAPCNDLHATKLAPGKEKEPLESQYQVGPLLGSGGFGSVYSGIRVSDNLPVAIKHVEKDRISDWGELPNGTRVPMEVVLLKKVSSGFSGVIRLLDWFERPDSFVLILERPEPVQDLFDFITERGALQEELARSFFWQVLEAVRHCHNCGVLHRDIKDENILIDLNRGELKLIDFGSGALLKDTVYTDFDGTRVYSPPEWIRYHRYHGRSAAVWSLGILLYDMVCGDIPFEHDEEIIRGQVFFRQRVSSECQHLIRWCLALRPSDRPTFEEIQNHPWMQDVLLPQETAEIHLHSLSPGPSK
experiment.description: Pim-1 enzyme assay (HTRF, phosphorylation of biotinylated-BAD (S112) peptide)
Type: biochemical
condition.label: enzyme assay, Pim-1; read-out: Pim_1_IC50
pIC50: −log10 of the molar value.
# if value of pIC50 reaches 8, tag 1; if it stays below, tag 0

Enquiry: Has COc1cncc(-c2c[nH]c3ccc(-c4cncc(OC(C)C)n4)cc23)n1 [Example 224] a recorded pIC50 greater than or equal to 8?
Return: 0

Enquiry: Has COc1cncc(-c2ccc3[nH]nc(-c4cncc(OC)c4)c3c2)c1 [Example 29] a recorded pIC50 greater than or equal to 8?
Return: 0

Enquiry: Has Cn1cc(-c2ccc3[nH]nc(-c4cncc(O[C@@H]5CCCNC5)n4)c3c2)cn1 [Example 129] a recorded pIC50 greater than or equal to 8?
Return: 1

Enquiry: Has CN1CCOc2cc(-c3ccc4[nH]nc(-c5cncc(O[C@@H]6CCCNC6)n5)c4c3)ccc21 [Example 123] a recorded pIC50 greater than or equal to 8?
Return: 1

Enquiry: Has c1cc2[nH]nc(-c3cncc(O[C@@H]4CCCNC4)n3)c2cc1-c1ccc2nncn2c1 [Example 145] a recorded pIC50 greater than or equal to 8?
Return: 0

Enquiry: Has NC1CCN(c2cncc(-c3n[nH]c4ccc(-c5ccc6cc[nH]c6n5)cc34)n2)CC1 [Example 95] a recorded pIC50 greater than or equal to 8?
Return: 1

Enquiry: Has NC1CCN(c2cncc(-c3n[nH]c4ccc(-c5ccc6nccnc6c5)cc34)n2)CC1 [Example 56] a recorded pIC50 greater than or equal to 8?
Return: 1

Enquiry: Has CN(C)C(=O)c1ccc(F)c(-c2ccc3[nH]nc(-c4cncc(N5CCC(N)CC5)n4)c3c2)c1 [Example 40] a recorded pIC50 greater than or equal to 8?
Return: 0

Enquiry: Has CC(C)Oc1cncc(-c2ccc3[nH]cc(-c4csc(-n5ccnc5)n4)c3c2)n1 [Example 228] a recorded pIC50 greater than or equal to 8?
Return: 0

Enquiry: Has N[C@H]1CCCN(c2cncc(-c3c[nH]c4ccc(-c5c(F)cccc5F)cc34)n2)C1 [Example 201] a recorded pIC50 greater than or equal to 8?
Return: 1

Enquiry: Has Fc1ncc(Cl)cc1-c1ccc2[nH]nc(-c3cncc(O[C@@H]4CCCNC4)n3)c2c1 [Example 117] a recorded pIC50 greater than or equal to 8?
Return: 0

Enquiry: Has Fc1cccc(F)c1-c1ccc2[nH]cc(-c3nccc(NC4CCNCC4)n3)c2c1 [Example 210] a recorded pIC50 greater than or equal to 8?
Return: 0

Enquiry: Has Fc1cccc(F)c1-c1ccc2[nH]nc(-c3ccnc(O[C@@H]4CCCNC4)n3)c2c1 [Example 190] a recorded pIC50 greater than or equal to 8?
Return: 0

Enquiry: Has CCC(=O)Nc1ccc2[nH]cc(-c3cncc(N4CCC(N)CC4)n3)c2c1 [Example 234] a recorded pIC50 greater than or equal to 8?
Return: 0

* * *

Give pIC50 for every item shown.
test.target: Pim-1 stably transfected into the U2OS human osteogenic sarcoma line (Homo sapiens)
Construct: expressed in transfected cells; host or cells: U2OS human osteogenic sarcoma line
experiment.description: Pim cell assay, phospho-BAD normalized against total BAD, U2OS stably transfected with Pim-1
Type: cell-based
condition.label: U2OS cells stably transfected with Pim-1, phospho-BAD; high dose […]; read-out: Pim1_Cell_IC50
Interpret pIC50 as the negative base-10 log of the concentration measured in mol/L.

# molecule Fc1cccc(F)c1-c1ccc2[nH]cc(-c3cncc(O[C@@H]4CCCNC4)n3)c2c1 ; its pIC50 = 6.64

# molecule CCOc1cccc(-c2ccc3[nH]nc(-c4cncc(N5CCC(N)CC5)n4)c3c2)n1 ; its pIC50 = 5.45

# molecule N[C@@H]1CCN(c2cncc(-c3c[nH]c4ccc(-c5c(F)cccc5F)cc34)n2)C1 ; its pIC50 = 6.00

* * *

test.target: Pim-2 stably transfected into the U2OS human osteogenic sarcoma line (Homo sapiens, UniProt Q9P1W9)
Construct: expressed in transfected cells; host or cells: U2OS human osteogenic sarcoma line
Sequence (Q9P1W9 whole entry): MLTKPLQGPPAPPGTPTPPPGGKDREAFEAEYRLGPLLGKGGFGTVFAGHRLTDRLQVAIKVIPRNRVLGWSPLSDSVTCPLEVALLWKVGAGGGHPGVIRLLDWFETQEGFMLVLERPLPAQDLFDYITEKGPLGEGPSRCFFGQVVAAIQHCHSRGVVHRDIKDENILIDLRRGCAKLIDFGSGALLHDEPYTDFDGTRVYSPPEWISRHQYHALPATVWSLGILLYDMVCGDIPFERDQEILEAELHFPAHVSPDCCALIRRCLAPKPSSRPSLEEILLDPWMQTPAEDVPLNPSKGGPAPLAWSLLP
experiment.description: Pim cell assay, phospho-BAD normalized against total BAD, U2OS stably transfected with Pim-2; also: high dose 31.6 µM
Assay type: cell-based
condition.label: U2OS cells stably transfected with Pim-2, phospho-BAD; high dose […]; read-out: Pim2_Cell_IC50
pIC50: −log10 of the molar value.
Give pIC50 for every item shown.

# molecule NC1CCN(c2cncc(-c3n[nH]c4ccc(-c5ccc6nccnc6c5)cc34)n2)CC1 ; its pIC50 = < 4.50

# molecule CCOc1cccc(-c2ccc3[nH]nc(-c4cncc(N5CCC(N)CC5)n4)c3c2)n1 ; its pIC50 = < 4.50

# molecule COc1cc(-c2ccc3[nH]nc(-c4cncc(N5CCC(N)CC5)n4)c3c2)nc(OC)n1 ; its pIC50 = < 4.50

# molecule CC(C)(C)NC(=O)c1ccc(F)c(-c2ccc3[nH]nc(-c4cncc(N5CCC(N)CC5)n4)c3c2)c1 ; its pIC50 = 5.45

# molecule NC1CCN(c2nccc(-c3n[nH]c4ccc(-c5c(F)cccc5F)cc34)n2)CC1 ; its pIC50 = < 4.50

# molecule CCCCNC(=O)c1ccc(F)c(-c2ccc3[nH]nc(-c4cncc(N5CCC(N)CC5)n4)c3c2)c1 ; its pIC50 = 5.32

# molecule NC1CCN(c2cncc(-c3n[nH]c4ccc(-c5cccnc5)cc34)n2)CC1 ; its pIC50 = 5.11

# molecule Fc1cncc(-c2ccc3[nH]nc(-c4cncc(O[C@@H]5CCCNC5)n4)c3c2)c1 ; its pIC50 = < 4.50

* * *

test.target: full length recombinant Pim-2 protein (Homo sapiens, UniProt Q9P1W9)
Construct: by full length recombinant Pim-1, Pim-2, or Pim-3 protein; hexahistidine tag followed by a thrombin cleavage site (N); made in house; host or cells: Sf9 (baculovirus) or E. coli (pET28)
Sequence (Q9P1W9 whole entry): as the sequence (Q9P1W9 whole entry) above
experiment.description: Pim-2 enzyme assay (HTRF, phosphorylation of biotinylated-BAD (S112) peptide)
Type: biochemical
condition.label: read-out: Pim2_IC50
metric: log10 of IC50 (log10 of the value in nM)
Heads up: the numbers are on a log10 scale; they represent IC50 in nM.

# compound Oc1cncc(-c2n[nH]c3ccc(-c4ccccc4F)cc23)n1 ; its log10 of IC50 = 2.80

# compound c1ncc(-c2ccc3[nH]cc(-c4cncc(O[C@@H]5CCCNC5)n4)c3c2)cc1NC1CC1 ; its log10 of IC50 = 2.63

# compound FC(F)(F)COc1cncc(-c2n[nH]c3ccc(-c4cncc(C5CC5)n4)cc23)n1 ; its log10 of IC50 = 2.40

# compound Fc1cccc(F)c1-c1ccc2[nH]nc(-c3cncc(CC4CCCNC4)n3)c2c1 (racemic) [Example 272, ditrifluoroacetate] ; its log10 of IC50 = 1.73

# compound OC1CN(c2cncc(-c3n[nH]c4ccc(-c5c(F)cccc5F)cc34)n2)CC1O (stereo not shown) [Example 449] ; its log10 of IC50 = 2.81

# compound c1cc(-c2ccc3[nH]nc(-c4cncc(O[C@@H]5CCCNC5)n4)c3c2)nc(C2CC2)n1 ; its log10 of IC50 = 1.85

# compound CC1CCNCC1Oc1cncc(-c2n[nH]c3ccc(-c4c(F)cccc4F)cc23)n1 (single isomer, unassigned) [Example 423] ; its log10 of IC50 = 2.29

# compound CC1CCN(c2cccc(-c3ccc4[nH]cc(-c5cncc(O[C@@H]6CCCNC6)n5)c4c3)n2)CC1 ; its log10 of IC50 = 2.79

# compound CC(C)Oc1cncc(-c2n[nH]c3ccc(-c4cnn(C(C)C)c4)cc23)n1 ; its log10 of IC50 = 2.36

# compound CC1(C)CNCCC1Oc1cncc(-c2n[nH]c3ccc(-c4c(F)cccc4F)cc23)n1 (single isomer, unassigned) [Example 433] ; its log10 of IC50 = 1.34

# compound c1cc2[nH]cc(-c3cncc(C4CC4)n3)c2cc1-c1cncc(C2CC2)n1 ; its log10 of IC50 = 2.54

# compound CC(c1ccc2[nH]nc(-c3cncc(O[C@H]4CNCCC45CC5)n3)c2c1)C(F)(F)F (single isomer, unassigned) [Example 260] ; its log10 of IC50 = 0.70

# compound CC(C)Oc1cncc(-c2n[nH]c3ccc(-c4cncc(C5CC5)n4)cc23)n1 ; its log10 of IC50 = 1.57

# compound FC(F)(F)C1(c2ccc3[nH]nc(-c4cncc(O[C@H]5CNCCC56CC6)n4)c3c2)CC1 ; its log10 of IC50 = 0.60

# compound Cc1ccc(C(=O)NC2CCC2)cc1-c1ccc2[nH]cc(-c3cncc(O[C@@H]4CCCNC4)n3)c2c1 ; its log10 of IC50 = 2.63

# compound Fc1cccc(F)c1-c1ccc2[nH]nc(-c3cncc(SC4CCCNC4)n3)c2c1 (single isomer, unassigned) [Example 415] ; its log10 of IC50 = 1.88

# compound COc1cc(OC)cc(-c2ccc3[nH]cc(-c4cncc(O[C@@H]5CCCNC5)n4)c3c2)c1 ; its log10 of IC50 = 1.41

# compound CC(C)Cc1ccc(-c2ccc3[nH]cc(-c4cncc(O[C@@H]5CCCNC5)n4)c3c2)cc1 ; its log10 of IC50 = 2.19

# compound NC1CCN(c2cncc(-c3n[nH]c4ccc(-c5cc6[nH]ccc6cn5)cc34)n2)CC1 ; its log10 of IC50 = 2.10

# compound CC(C)Oc1cncc(-c2ccc3[nH]cc(-c4nnc(N[C@H]5CCNC5)o4)c3c2)n1 ; its log10 of IC50 = 2.68

# compound N#Cc1ccc(-c2ccc3[nH]cc(-c4cncc(O[C@@H]5CCCNC5)n4)c3c2)cc1F ; its log10 of IC50 = 1.74

# compound Oc1cc(N[C@@H]2CCCNC2)nc(-c2c[nH]c3ccc(-c4c(F)cccc4F)cc23)n1 ; its log10 of IC50 = 0.85

# compound COC(=O)c1ccc2[nH]nc(-c3nccc(NC4CCNCC4)n3)c2c1 ; its log10 of IC50 = 1.41

# compound Fc1cnccc1-c1ccc2[nH]cc(-c3cncc(O[C@@H]4CCCNC4)n3)c2c1 ; its log10 of IC50 = 0.85

# compound CN(C)C(=O)c1ccc2[nH]nc(-c3cncc(NC4CCNCC4)n3)c2c1 ; its log10 of IC50 = 2.34

# compound CC[C@@H]1CCNC[C@H]1Oc1cncc(-c2n[nH]c3ccc(-c4c(F)cccc4F)cc23)n1 ; its log10 of IC50 = 2.16

# compound COc1cc(N2CCC(N)CC2)nc(-c2c[nH]c3ccc(-c4c(F)cccc4F)cc23)n1 ; its log10 of IC50 = 2.16

# compound FCCOc1cncc(-c2n[nH]c3ccc(-c4cncc(C5CC5)n4)cc23)n1 ; its log10 of IC50 = 1.43

# compound Cc1ccccc1-c1ccc2[nH]nc(-c3cncc(O[C@H]4CNCCC45CC5)n3)c2c1 ; its log10 of IC50 = 1.28
